ASSAY_SYSTEM: UniProt P11474
Sequence (P11474 193-421 limits assumed): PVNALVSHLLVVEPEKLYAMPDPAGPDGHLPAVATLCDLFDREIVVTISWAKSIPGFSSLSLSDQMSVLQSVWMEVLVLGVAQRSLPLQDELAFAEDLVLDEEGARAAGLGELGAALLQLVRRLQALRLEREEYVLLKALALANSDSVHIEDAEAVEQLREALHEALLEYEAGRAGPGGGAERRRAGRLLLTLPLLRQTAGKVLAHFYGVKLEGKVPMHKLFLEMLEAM
ASSAY_EXPLANATION: TR-FRET assay (disruption of co-activator peptide binding to ERR1 LBD)
CONDITION: 6 nM 6His-ERR1LBD, 6 nM GST-SRC-2 peptide; average of 3 independent experiments
pEC50: −log10 of the molar value.
PROPERTY_NAME: pEC50

# count of solved cases: 2
compound="N[C@H](CN1C(=O)S/C(=C\\c2ccc3c(cnn3Cc3ccc(Cl)cc3C(F)(F)F)c2)C1=O)c1ccccc1 [Compound 161]" assay_system="UniProt P11474" readout_value=7.14
compound="CS(=O)(=O)NN1C(=O)S/C(=C\\c2ccc3c(cnn3Cc3ccc(Cl)cc3C(F)(F)F)c2F)C1=O [Compound 370]" assay_system="UniProt P11474" readout_value=7.32

I: CCN1C[C@@H](F)[C@H](N2C(=O)S/C(=C\c3ccc4c(cnn4Cc4ccc(Cl)cc4C(F)(F)F)c3)C2=O)C1 (relative stereo) [Compound 320]
II: O=C1S/C(=C\c2ccc3c(cnn3Cc3ccc(Cl)cc3C(F)(F)F)c2)C(=O)N1C[C@@H]1C[C@@H](O)CN1 [Compound 182]
III: CC(C)(C)NCCN1C(=O)S/C(=C\c2ccc3c(cnn3Cc3ccc(Cl)cc3C(F)(F)F)c2)C1=O [Compound 46]
Ask: List the 3 entries from lowest pEC50 to highest pEC50 value. Use the labels to give the requested order.
Result: II, I, III

A: O=C1S/C(=C\c2ccc3c(cnn3Cc3ccc(Cl)cc3C(F)(F)F)c2)C(=O)N1Cc1nccn1S(=O)(=O)N1CCCC1 [Compound 412]
B: O=C1S/C(=C\c2ccc3c(cnn3Cc3ccc(Cl)cc3C(F)(F)F)c2)C(=O)N1CCNC(=O)C(F)(F)F [Compound 390]
C: CC(=O)Nc1nc(CN2C(=O)S/C(=C\c3ccc4c(cnn4Cc4ccc(Cl)cc4C(F)(F)F)c3)C2=O)cs1 [Compound 413]
Ask: List the 3 entries from lowest pEC50 to highest pEC50 value. Use the labels to give the requested order.
Result: C, B, A

A: O=C1S/C(=C\c2ccc3c(cnn3Cc3ccc(Cl)cc3C(F)(F)F)c2)C(=O)N1CC1CCNCC1 [Compound 130]
B: COc1ccc(Cn2nc(OC)c3cc(/C=C4\SC(=O)N(CCN5CCOCC5)C4=O)ccc32)c(C(F)(F)F)c1 [Compound 25]
Ask: Of A and B , which shows the smaller pEC50 value? In your reply, give the label of the chosen option.
Result: A

----------
ASSAY_SYSTEM: ERR1 (also known as ERR-α or ERR-1) (Homo sapiens, UniProt P11474)
ASSAY_EXPLANATION: TR-FRET assay (disruption of co-activator peptide binding to ERR1 LBD)
CONDITION: 6 nM 6His-ERR1LBD, 6 nM GST-SRC-2 peptide; average of 3 independent experiments
pEC50: −log10 of the molar value.
PROPERTY_NAME: pEC50

# count of solved cases: 5
record_smiles=CS(=O)(=O)NN1C(=O)S/C(=C\c2ccc3c(cnn3Cc3ccc(C(F)(F)F)cc3C(F)(F)F)c2)C1=O property_name=pEC50 readout_value=7.59
record_smiles=COC(=O)[C@H](COC(C)(C)C)N1C(=O)S/C(=C\c2ccc3c(cnn3Cc3ccc(Cl)cc3C(F)(F)F)c2)C1=O property_name=pEC50 readout_value=6.59
record_smiles=CC(C)NCCN1C(=O)S/C(=C\c2ccc3c(cnn3Cc3ccc(Cl)cc3C(F)(F)F)c2)C1=O property_name=pEC50 readout_value=7.72
record_smiles=O=C1S/C(=C\c2ccc3c(cnn3Cc3ccc(C(F)(F)F)cc3C(F)(F)F)c2)C(=O)N1C[C@@H]1CCCN1 property_name=pEC50 readout_value=7.09
record_smiles=N=C(N)NOCCN1C(=O)S/C(=C\c2ccc3c(cnn3Cc3ccc(Cl)cc3C(F)(F)F)c2)C1=O property_name=pEC50 readout_value=7.24

P: CN1CCC[C@H]1CN1C(=O)S/C(=C\c2ccc3c(cnn3Cc3ccc(C(F)(F)F)cc3C(F)(F)F)c2)C1=O
Q: O=C1S/C(=C\c2ccc3c(cnn3Cc3ccc(C(F)(F)F)cc3C(F)(F)F)c2)C(=O)N1C[C@@H]1COCCN1
Ask: Of P and Q , which shows the smaller pEC50 value? In your reply, give the label of the chosen option.
Result: Q
